These measurements were taken from PubChem BioAssay (EPA / NIEHS).

Read-out: Monokine induced gamma interferon (MIG), CXCL9 (gene 4283)
assayDetails: BSK_3C_MIG: BioMAP Diversity Plus: 3C Assay for Monokine induced gamma interferon (MIG) Biomarker Activity (AID 2283021);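 for AC50: MIG protein level measured by immunoassay in the treated endothelial cultures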
testSettings: primary human endothelial cells (HUVEC); actives raise or lower the signal
The source made the active and inactive calls. Rule for the calls: active = hit-call score of the fitted dose curve at least 0.9, where 1 is the maximum; inactive = score below 0.9.
outcomeMeasure: AC50

INSERT INTO assay_data (smilesstring, result) VALUES
  ('CCCCCCCCCCCCOS(=O)(=O)O', 'inactive'),
  ('CN(C)CCOC(c1ccccc1)c1ccccc1', 'inactive'),
  ('O=C1c2ccc(O)c(O)c2C(=O)c2c(O)ccc(O)c21', 'inactive'),
  ('COC1=CC(=O)C[C@@H](C)[C@]12Oc1c(Cl)c(OC)cc(OC)c1C2=O', 'inactive'),
  ('Oc1ccc(Cc2ccccc2O)cc1', 'inactive'),
  ('CCCCCCCCCCCCCCC', 'inactive'),
  ('OCC(CO)(CBr)CBr', 'inactive'),
  ('NC(=NCCCCCCN=C(N)/N=C(\N)Nc1ccc(Cl)cc1)/N=C(\N)Nc1ccc(Cl)cc1', '9.77 µM (active)'),
  ('O=P(O)(O)CCC(F)(F)C(F)(F)C(F)(F)C(F)(F)C(F)(F)C(F)(F)C(F)(F)C(F)(F)F', 'inactive'),
  ('COCN(COC)c1nc(N(COC)COC)nc(N(COC)COC)n1', 'inactive'),
  ('O=C1NS(=O)(=O)c2ccccc21', 'inactive'),
  ('CN(C)c1ccc(C(=C2C=CC(=[N+](C)C)C=C2)c2ccccc2)cc1', '0.356 µM (active)');

====

Read-out: Interleukin 17F (IL17F), IL17F (gene 112744)
assayDetails: BSK_BT_xIL17F: BioMAP Diversity Plus: BT Assay for Interleukin 17F (IL17F) Biomarker Activity (AID 2284243)
testSettings: primary human B cells with PBMC
Activity calls are given as the source filed them. Rule for the calls: active = hit-call score of the fitted dose curve at least 0.9, where 1 is the maximum; inactive = score below 0.9.
Outcomes: active, inactive

INSERT INTO assay_data (compound, class) VALUES
  ('COCN(COC)c1nc(N(COC)COC)nc(N(COC)COC)n1', 'inactive'),
  ('COC1=CC(=O)C[C@@H](C)[C@]12Oc1c(Cl)c(OC)cc(OC)c1C2=O', 'inactive'),
  ('O=C1c2ccc(O)c(O)c2C(=O)c2c(O)ccc(O)c21', 'inactive'),
  ('O=C(NO)c1ccccc1', 'active'),
  ('O=C(NCc1ncc(C(F)(F)F)cc1Cl)c1c(Cl)cccc1Cl', 'active'),
  ('CN(Cc1cnc2nc(N)nc(N)c2n1)c1ccc(C(=O)N[C@@H](CCC(=O)O)C(=O)O)cc1', 'inactive'),
  ('O=C(O)CCC(F)(F)C(F)(F)C(F)(F)C(F)(F)C(F)(F)F', 'inactive'),
  ('COc1cc(OC)nc(NC(=O)NS(=O)(=O)Nc2ccccc2C(=O)N(C)C)n1', 'inactive'),
  ('CN(C)c1ccc(C(=C2C=CC(=[N+](C)C)C=C2)c2ccccc2)cc1', 'active'),
  ('Cc1ccc(N=Nc2c(O)ccc3ccccc23)c(C)c1', 'inactive'),
  ('O=P(O)(O)CCC(F)(F)C(F)(F)C(F)(F)C(F)(F)C(F)(F)C(F)(F)C(F)(F)C(F)(F)F', 'inactive'),
  ('O=S(=O)(O)C(F)(F)C(F)(F)C(F)(F)C(F)(F)C(F)(F)C(F)(F)C(F)(F)C(F)(F)C(F)(F)C(F)(F)F', 'inactive'),
  ('CCCCCc1ccc(O)cc1', 'inactive'),
  ('CC1=NN(c2ccccc2)C(=O)C1', 'inactive'),
  ('C=CC(=O)OCCC(F)(F)C(F)(F)C(F)(F)C(F)(F)C(F)(F)C(F)(F)C(F)(F)C(F)(F)F', 'inactive'),
  ('OCCN1CN(CCO)CN(CCO)C1', 'active'),
  ('Clc1ccc(Nc2nnc(Cc3ccncc3)c3ccccc23)cc1', 'inactive'),
  ('CCCCC(CC)C(=O)OCCOCCOCCOCCOC(=O)C(CC)CCCC (centres undefined)', 'inactive'),
  ('O=C(O)CCC(F)(F)C(F)(F)C(F)(F)C(F)(F)C(F)(F)C(F)(F)F', 'inactive');
